Test system: OVCAR-8 ovarian
assay.notes: NCI tumour cell line growth inhibition, 48 h; in the data active = GI50 below about 0.43 µM; inactive = the rest
Answer with one of the outcomes given here: active, inactive

COc1cc(/C=C/C(=O)c2cc(F)c(Cl)cc2Cl)cc(OC)c1OC
inactive
COc1cccc(/C=C/C(=O)c2ccc(Cl)cc2Cl)c1OC
inactive
COc1cc2c3c(n(CCCN4CCN(C)CC4)c(=O)c2cc1OC)-c1cc2c(cc1C3=O)OCO2
inactive
COc1cc2c3c(n(CCN)c(=O)c2cc1OC)-c1cc2c(cc1C3=O)OCO2
inactive

Could you kindly confirm the outcome this assay logged for NC1=NC(c2ccccc2)N=C(Nc2ccccc2)N1 (centres undefined) ?
inactive

Could you kindly confirm the outcome this assay logged for `CN1CCN(c2ccc(-c3cnc4c(-c5csc6ccccc56)cnn4c3)cc2)CC1` ?
inactive

Could you kindly confirm the outcome this assay logged for `CN(C)c1ccc(/C=C/c2sc3ccc4ccccc4c3[n+]2C)cc1` ?
active

Could you kindly confirm the outcome this assay logged for Nc1nc2c(c3ncccc13)C(c1cccc(Cl)c1)Cc1ncccc1-2 (centres undefined) ?
inactive

Could you kindly confirm the outcome this assay logged for `CCC(C(=O)[O-])C(=O)[O-].CCC(C(=O)[O-])C(=O)[O-].N.N.NCCCCCN.[Pt+4].[Pt+4]` ?
inactive

Could you kindly confirm the outcome this assay logged for `O=C1c2ccccc2S(=O)(=O)N1CSC(=S)N1CCCC1` ?
inactive

Could you kindly confirm the outcome this assay logged for `COC(=O)[C@]12CC[C@@H](C)[C@H](C)[C@@H]1C1=CC[C@@H]3[C@@]4(C)C(C=O)=C[C@@](C)(COC(C)=O)[C@@H]4[C@H](O)C[C@@]3(C)[C@]1(C)CC2` ?
inactive

Could you kindly confirm the outcome this assay logged for N#CC1C(=N)Cc2ccccc2-c2ccccc21 (centres undefined) ?
inactive

Could you kindly confirm the outcome this assay logged for `O=C(Oc1ccc([N+](=O)[O-])cc1)N1CCN(Cc2cccc(Oc3ccccc3)c2)CC1` ?
inactive

Could you kindly confirm the outcome this assay logged for `N#C/C(=C/C=C(\Cl)c1ccc(Cl)cc1)C(N)=O` ?
inactive
